Each recorded value in this set is attributed to patent US20150307520A1.

Catalogue of PI3Kγ IH % @ 1 uM readings, one per entry.
Test System: p110γ (Homo sapiens)
Assay Summary: Transcreener KINASE Assay, kinase inhibition of p110γ
Format: biochemical
Condition Info: 1 uM test compound
Measurement Label: PI3Kγ IH % @ 1 uM (%)

1) N#Cc1c[nH]c2ncnc(N3CCC[C@H]3c3nn4ccc(Cl)c4c(=O)n3Cc3ncccn3)c12 [Compound 155]; 94.9
2) C[S@+]([O-])c1c[nH]c2ncnc(N3C[C@@H](C#N)C[C@H]3c3nn4ccc(Cl)c4c(=O)n3-c3cccc(F)c3)c12 [Compound 348]; 75.6
3) N#Cc1c[nH]c2ncnc(N3CC[C@H]3c3nn4ccc(C(F)(F)F)c4c(=O)n3-c3ccccc3)c12 [Compound 488]; 87.3
4) CC(=O)c1cnc(N)nc1N1C[C@H](C)[C@H]1c1nn2ccc(Cl)c2c(=O)n1-c1cccc(F)c1 [Compound 467]; 94.3

---

Test System: p110β/p85α (Homo sapiens)
Sequence (P42338 whole entry): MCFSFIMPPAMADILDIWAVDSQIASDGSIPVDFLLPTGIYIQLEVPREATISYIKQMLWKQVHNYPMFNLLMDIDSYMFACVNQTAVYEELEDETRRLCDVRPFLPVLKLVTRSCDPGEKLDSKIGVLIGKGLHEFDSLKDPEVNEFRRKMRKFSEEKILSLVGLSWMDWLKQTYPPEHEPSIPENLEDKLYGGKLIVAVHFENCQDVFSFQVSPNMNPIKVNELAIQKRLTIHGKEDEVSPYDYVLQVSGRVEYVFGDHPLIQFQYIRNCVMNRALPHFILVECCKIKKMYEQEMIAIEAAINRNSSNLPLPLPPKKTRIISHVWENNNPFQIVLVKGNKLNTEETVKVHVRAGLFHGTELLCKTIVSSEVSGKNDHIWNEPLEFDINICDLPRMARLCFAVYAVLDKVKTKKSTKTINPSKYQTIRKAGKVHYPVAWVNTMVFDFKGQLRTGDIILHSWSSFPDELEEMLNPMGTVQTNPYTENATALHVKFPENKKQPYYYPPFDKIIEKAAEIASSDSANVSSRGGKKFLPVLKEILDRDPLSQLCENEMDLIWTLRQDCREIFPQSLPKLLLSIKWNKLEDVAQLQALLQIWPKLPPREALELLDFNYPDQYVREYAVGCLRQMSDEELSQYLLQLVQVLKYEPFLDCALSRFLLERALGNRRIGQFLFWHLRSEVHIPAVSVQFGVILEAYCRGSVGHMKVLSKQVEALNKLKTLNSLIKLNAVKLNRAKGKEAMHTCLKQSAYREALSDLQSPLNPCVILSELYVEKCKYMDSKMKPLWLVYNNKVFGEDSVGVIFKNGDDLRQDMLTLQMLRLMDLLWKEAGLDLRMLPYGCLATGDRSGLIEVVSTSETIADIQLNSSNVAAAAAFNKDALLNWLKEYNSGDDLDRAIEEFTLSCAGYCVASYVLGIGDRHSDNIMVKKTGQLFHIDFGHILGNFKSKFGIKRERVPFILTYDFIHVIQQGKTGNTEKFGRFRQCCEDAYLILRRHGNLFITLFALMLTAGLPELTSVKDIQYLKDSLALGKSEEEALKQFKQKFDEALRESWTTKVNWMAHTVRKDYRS
Sequence (P27986 2-724 partner): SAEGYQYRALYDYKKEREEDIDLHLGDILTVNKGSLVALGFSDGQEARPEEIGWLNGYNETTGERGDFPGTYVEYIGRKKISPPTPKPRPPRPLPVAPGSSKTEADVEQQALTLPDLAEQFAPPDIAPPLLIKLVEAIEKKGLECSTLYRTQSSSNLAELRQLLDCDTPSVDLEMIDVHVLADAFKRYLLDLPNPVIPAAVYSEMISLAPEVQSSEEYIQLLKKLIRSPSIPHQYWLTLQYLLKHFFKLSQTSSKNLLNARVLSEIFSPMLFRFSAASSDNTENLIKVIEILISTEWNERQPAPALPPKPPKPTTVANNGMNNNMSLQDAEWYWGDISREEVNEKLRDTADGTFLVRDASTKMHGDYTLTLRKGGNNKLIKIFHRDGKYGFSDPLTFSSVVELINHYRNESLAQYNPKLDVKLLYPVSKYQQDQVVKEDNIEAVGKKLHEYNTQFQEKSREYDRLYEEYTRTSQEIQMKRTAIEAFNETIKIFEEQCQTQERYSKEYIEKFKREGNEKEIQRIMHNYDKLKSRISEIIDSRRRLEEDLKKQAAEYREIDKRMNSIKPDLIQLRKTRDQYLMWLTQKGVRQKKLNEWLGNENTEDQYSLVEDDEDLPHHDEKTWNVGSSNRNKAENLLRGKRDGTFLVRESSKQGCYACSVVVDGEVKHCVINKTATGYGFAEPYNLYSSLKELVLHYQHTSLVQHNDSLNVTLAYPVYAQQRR
Assay Summary: Transcreener KINASE Assay, kinase inhibition of p110β/p85α
Format: biochemical
Condition Info: 1 uM test compound
Measurement Label: PI3Kβ IH % @ 1 uM

1) N#Cc1cnc(N)nc1N1CC(=O)C[C@H]1c1nn2ccc(Cl)c2c(=O)n1-c1cccc(F)c1; 31.1%
2) N#Cc1c(N)ncnc1N1CC[C@H]1c1nn2cccc2c(=O)n1-c1ccccc1; 33.3%
3) CC(Nc1ncnc2[nH]cnc12)c1cc2ccc(Cl)n2c(=O)n1-c1ccccc1 (stereo not drawn); 88.3%
4) C[S+]([O-])c1c[nH]c2ncnc(N3CC[C@H]3c3nn4ccc(Cl)c4c(=O)n3-c3ccc(F)cc3)c12 (stereo partly drawn); 17.1%
5) Cc1ccn2cc(C(C)Nc3ncnc(N)c3C#N)n(-c3ccccc3)c(=O)c12 (stereo not drawn); 93.1%
6) CC(Nc1nc(N)ncc1C(F)(F)F)c1cn2ccc(Cl)c2c(=O)n1-c1cccc(F)c1 (stereo not drawn); 59.3%
7) CNC(=O)c1c[nH]c2ncnc(N3CCC[C@H]3c3nn4ccc(Cl)c4c(=O)n3-c3ccccc3)c12; 73.4%
8) C[S+]([O-])c1c[nH]c2ncnc(N3CCC[C@H]3c3nn4ccc(Cl)c4c(=O)n3-c3ccccc3)c12 (stereo partly drawn) [Compound 186]; >100%
9) CC(=O)c1c[nH]c2ncnc(N3CC[C@H]3c3nn4ccc(Cl)c4c(=O)n3-c3ccccc3)c12; 45.9%
10) N#Cc1cccc(-n2c([C@@H]3CCCN3c3ncnc4[nH]cnc34)nn3ccc(Cl)c3c2=O)c1; 19.8%
11) CC(Nc1ncnc(N)c1C#N)c1cc2ncc(Cl)n2c(=O)n1-c1ccccc1 (stereo not drawn); >100%
12) O=C(NCCO)c1c[nH]c2ncnc(N3CC[C@H]3c3nn4ccc(Cl)c4c(=O)n3-c3ccccc3)c12; 47.4%
13) CC(=O)c1cnc(N)nc1N1CC(C)(C)[C@H]1c1nn2ccc(Cl)c2c(=O)n1-c1ccccc1; −2.1%
14) C[S@+]([O-])c1c[nH]c2ncnc(N3CCC[C@H]3c3nn4ccc(Cl)c4c(=O)n3-c3ccccn3)c12; 69.3%
15) Nc1nc2c(c(N3CCCC3c3cn4ccc(Cl)c4c(=O)n3-c3ccccc3)n1)C(=O)CCN2 (stereo not drawn); 73.4%

---

Test System: p110γ (Homo sapiens, UniProt P48736)
Sequence (P48736 whole entry): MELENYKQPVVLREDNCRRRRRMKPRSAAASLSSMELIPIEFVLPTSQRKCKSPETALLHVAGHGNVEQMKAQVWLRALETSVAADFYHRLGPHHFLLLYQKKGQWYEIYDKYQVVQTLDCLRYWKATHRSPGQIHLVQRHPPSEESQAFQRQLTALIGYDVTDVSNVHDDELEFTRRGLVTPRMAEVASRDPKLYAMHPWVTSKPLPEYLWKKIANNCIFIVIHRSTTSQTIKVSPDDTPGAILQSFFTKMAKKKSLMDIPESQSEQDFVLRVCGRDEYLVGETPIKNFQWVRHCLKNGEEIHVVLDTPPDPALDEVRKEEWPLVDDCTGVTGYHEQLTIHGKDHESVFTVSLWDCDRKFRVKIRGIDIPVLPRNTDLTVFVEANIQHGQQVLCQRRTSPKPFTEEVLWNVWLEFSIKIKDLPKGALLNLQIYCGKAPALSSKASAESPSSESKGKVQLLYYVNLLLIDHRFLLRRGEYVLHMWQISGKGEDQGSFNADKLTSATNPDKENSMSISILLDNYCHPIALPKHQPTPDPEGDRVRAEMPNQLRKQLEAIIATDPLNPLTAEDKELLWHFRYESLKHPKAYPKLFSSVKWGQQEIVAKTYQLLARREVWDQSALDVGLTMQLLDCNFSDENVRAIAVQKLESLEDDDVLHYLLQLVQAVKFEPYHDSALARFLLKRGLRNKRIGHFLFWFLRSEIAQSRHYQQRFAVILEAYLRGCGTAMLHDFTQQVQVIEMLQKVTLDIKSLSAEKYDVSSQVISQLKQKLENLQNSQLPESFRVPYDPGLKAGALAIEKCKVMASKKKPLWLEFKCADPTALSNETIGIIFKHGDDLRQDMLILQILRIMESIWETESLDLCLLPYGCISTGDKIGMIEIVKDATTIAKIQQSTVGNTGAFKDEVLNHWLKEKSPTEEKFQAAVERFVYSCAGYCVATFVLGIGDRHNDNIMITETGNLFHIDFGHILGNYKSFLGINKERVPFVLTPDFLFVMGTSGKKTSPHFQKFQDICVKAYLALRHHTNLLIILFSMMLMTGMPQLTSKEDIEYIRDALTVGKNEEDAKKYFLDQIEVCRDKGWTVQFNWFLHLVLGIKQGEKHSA
Assay Summary: Transcreener KINASE Assay, kinase inhibition of p110γ
Format: biochemical
Condition Info: 1 uM test compound
Catalogue of PI3Kγ IH % @ 1 uM readings, one per entry.
Measurement Label: PI3Kγ IH % @ 1 uM (%)

1. N#Cc1c[nH]c2ncnc(N3CC(F)(F)C[C@H]3c3nn4ccc(Cl)c4c(=O)n3-c3ccccc3)c12; 97.6
2. N#Cc1cnc(N)nc1N1CC(=O)C[C@H]1c1nn2ccc(Cl)c2c(=O)n1-c1cccc(F)c1; 95.6
3. N#Cc1c[nH]c2ncnc(N3CC(F)(F)C[C@H]3c3nn4ccc(Cl)c4c(=O)n3Cc3ccccn3)c12; 34.3
4. CC(=O)c1cnc(N)nc1N1CCC1c1nn2ccc(Cl)c2c(=O)n1-c1ccccn1 (stereo not shown); 98.2
5. CC(Nc1ncnc2[nH]cnc12)c1cc2ncc(Cl)n2c(=O)n1-c1ccccc1 (stereo not shown); 91.7
6. COc1ccc(-c2n[nH]c3ncnc(N4CCC[C@H]4c4nn5ccc(Cl)c5c(=O)n4-c4ccccc4)c23)cn1; 98.3
